Target: HIV Env, isolate HIV-16845-2.22 (HIV)
Test: cell-based or functional assay
property: IC80 (µg/ml) with constrains

ePGDM13 (antibody, V domains shown) VH: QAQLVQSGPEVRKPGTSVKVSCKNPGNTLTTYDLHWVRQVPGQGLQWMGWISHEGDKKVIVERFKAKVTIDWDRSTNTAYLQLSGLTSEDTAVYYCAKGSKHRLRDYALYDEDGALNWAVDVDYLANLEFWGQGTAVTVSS VL: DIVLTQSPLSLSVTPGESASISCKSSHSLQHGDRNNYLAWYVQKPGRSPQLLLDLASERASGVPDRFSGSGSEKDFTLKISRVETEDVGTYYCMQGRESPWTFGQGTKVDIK: > 100 µg/mL
ePGDM5 (antibody, V domains shown) VH: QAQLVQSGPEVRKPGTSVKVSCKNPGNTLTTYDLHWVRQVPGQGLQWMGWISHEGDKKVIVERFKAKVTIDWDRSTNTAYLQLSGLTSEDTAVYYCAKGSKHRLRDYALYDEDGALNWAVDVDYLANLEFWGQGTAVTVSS VL: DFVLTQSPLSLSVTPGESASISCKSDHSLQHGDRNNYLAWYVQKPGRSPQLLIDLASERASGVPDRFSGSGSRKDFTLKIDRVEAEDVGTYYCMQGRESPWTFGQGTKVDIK: > 100 µg/mL
PGDM1400 (antibody, V domains shown) VH: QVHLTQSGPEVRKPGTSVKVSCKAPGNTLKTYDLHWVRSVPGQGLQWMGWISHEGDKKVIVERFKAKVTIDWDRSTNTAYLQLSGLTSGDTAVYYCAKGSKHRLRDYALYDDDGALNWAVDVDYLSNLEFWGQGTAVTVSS VL: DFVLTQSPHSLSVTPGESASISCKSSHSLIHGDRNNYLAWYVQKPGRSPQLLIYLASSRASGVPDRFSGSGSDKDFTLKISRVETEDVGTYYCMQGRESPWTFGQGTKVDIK: > 100 µg/mL
ePGDM9 (antibody, V domains shown) VH: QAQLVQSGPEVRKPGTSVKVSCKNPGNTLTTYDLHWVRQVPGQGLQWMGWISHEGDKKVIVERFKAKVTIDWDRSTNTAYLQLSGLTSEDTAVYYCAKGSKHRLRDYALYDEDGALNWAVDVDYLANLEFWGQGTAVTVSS VL: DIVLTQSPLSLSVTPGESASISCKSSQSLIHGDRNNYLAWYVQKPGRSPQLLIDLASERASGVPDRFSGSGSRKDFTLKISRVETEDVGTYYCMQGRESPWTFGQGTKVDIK: > 100 µg/mL
